# Assay summary: Antioxidant activity assessed as reduction in AAPH free radical-induced linoleic acid peroxidation activity measured at 100 ug/ml by UV spectroscopic analysis
# Assay type: functional
# Set-up: scale not given: the % may be the effect or the level left
Reported Activity values for the following molecules.
Measured property: Activity (%)

Molecule: O=[N+]([O-])c1ccc(N2C(O)CC(c3ccccc3)N2C(c2ccc3c(c2)OCO3)N2CCOCC2)c([N+](=O)[O-])c1 (stereo not drawn)
Measurement: 29.8
--
Molecule: Cc1c(C)c2c(c(C)c1O)CCC(C)(C(=O)O)O2 (stereo not drawn)
Measurement: 62.3
--
Molecule: CC(C)=CCC/C(C)=C\C(N1CCOCC1)N1C(c2ccccc2)CC(O)N1c1ccc([N+](=O)[O-])cc1[N+](=O)[O-] (stereo not drawn)
Measurement: 84.5
--
Molecule: O=[N+]([O-])c1ccc(N2C(O)CC(c3ccccc3)N2C(c2c[nH]c3ccccc23)N2CCOCC2)c([N+](=O)[O-])c1 (stereo not drawn)
Measurement: 34.6
--
Molecule: O=[N+]([O-])c1ccc(N2C(O)CC(c3ccccc3)N2C(c2ccco2)N2CCOCC2)c([N+](=O)[O-])c1 (stereo not drawn)
Measurement: 42.8
--
Molecule: COc1ccc(C(N2CCOCC2)N2C(c3ccccc3)CC(O)N2c2ccc([N+](=O)[O-])cc2[N+](=O)[O-])cc1 (stereo not drawn)
Measurement: 59.1
--
Molecule: O=[N+]([O-])c1ccc(N2C(O)CC(c3ccccc3)N2C(c2ccccc2)N2CCOCC2)c([N+](=O)[O-])c1 (stereo not drawn)
Measurement: 21.8
--
Molecule: O=[N+]([O-])c1ccc(C(N2CCOCC2)N2C(c3ccccc3)CC(O)N2c2ccc([N+](=O)[O-])cc2[N+](=O)[O-])cc1 (stereo not drawn)
Measurement: 47.9

* * *

Reported LC50 values for the following molecules.
# Assay summary: Cytotoxicity against human HepG2 cells after 48 hrs by MTT assay
# Format: functional
# Stated conditions: HepG2, 48 h

Molecule: O=[N+]([O-])c1ccc(N2C(O)CC(c3ccccc3)N2C(c2ccccc2)N2CCOCC2)c([N+](=O)[O-])c1 (configuration not stated)
LC50: > 100 µM
//
Molecule: O=[N+]([O-])c1ccc(N2C(O)CC(c3ccccc3)N2C(c2cncs2)N2CCOCC2)c([N+](=O)[O-])c1 (configuration not stated)
LC50: 89.3 µM
//
Molecule: O=[N+]([O-])c1ccc(N2C(O)CC(c3ccccc3)N2C(c2ccc3c(c2)OCO3)N2CCOCC2)c([N+](=O)[O-])c1 (configuration not stated)
LC50: 62.1 µM
//
Molecule: CC(C)=CCC/C(C)=C\C(N1CCOCC1)N1C(c2ccccc2)CC(O)N1c1ccc([N+](=O)[O-])cc1[N+](=O)[O-] (configuration not stated)
LC50: > 100 µM
//
Molecule: O=[N+]([O-])c1ccc(C(N2CCOCC2)N2C(c3ccccc3)CC(O)N2c2ccc([N+](=O)[O-])cc2[N+](=O)[O-])cc1 (configuration not stated)
LC50: > 100 µM
//
Molecule: O=[N+]([O-])c1ccc(N2C(O)CC(c3ccccc3)N2C(c2ccc(O)cc2)N2CCOCC2)c([N+](=O)[O-])c1 (configuration not stated)
LC50: > 100 µM
//
Molecule: O=[N+]([O-])c1ccc(N2C(O)CC(c3ccccc3)N2C(c2ccco2)N2CCOCC2)c([N+](=O)[O-])c1 (configuration not stated)
LC50: > 100 µM
